Kindly supply the reported mass density values for the records listed here.
details: 313.15 K; 101.3 kPa; Liquid; Vibrating tube method
± gives the expanded uncertainty stated by the source.
Kindly format the answer as number then unit.

molecule	readout name	recorded measurement
CC(C)O [propan-2-ol]	mass density	768.2 ± 6 kg/m3
CC(=O)[O-].OCC[NH2+]CCO [2,2'-azanediylbis(ethanol) acetate]	mass density	1167 ± 6 kg/m3
CCCO [propan-1-ol]	mass density	787.5 ± 6 kg/m3

What measured mass density goes with CC(=O)[O-].[NH3+]CCO [2-hydroxyethylammonium acetate] ?
1139 ± 6 kg/m3

----------
conditions: 313.15 K; 101.3 kPa; Liquid; Single path-length method
Record form. Attribute: speed of sound. Fill in for each entry.
One number for each entry, in m/s.

molecule	speed of sound [m/s]
CCCO	1155.5
CC(=O)[O-].OCC[NH2+]CCO [2,2'-azanediylbis(ethanol) acetate]	1788.6
CC(=O)[O-].[NH3+]CCO [2-hydroxyethylammonium acetate]	1754.7

Query: speed of sound; subject: `CC(C)O`
1087.4

----------
conditions: 323.15 K; 101.3 kPa; Liquid; Single path-length method
Provide the recorded speed of sound for the entries that follow.
Numbers only, in m/s.

molecule	units symbol	speed of sound
CC(C)O	m/s	1051.6
CCCO	m/s	1122
CC(=O)[O-].OCC[NH2+]CCO [2,2'-azanediylbis(ethanol) acetate]	m/s	1756

Consider now this further molecule.
Bench note: what speed of sound did CC(=O)[O-].[NH3+]CCO [2-hydroxyethylammonium acetate] show?
1730.9

----------
settings: 303.15 K; 101.3 kPa; Liquid; Single path-length method
± gives the expanded uncertainty stated by the source.
Hi there, I'd appreciate the recorded speed of sound for every entry that follows.
Please answer using the number first and the unit second.

Past entries and their recorded results:
molecule	readout name	recorded measurement
CC(=O)[O-].[NH3+]CCO [2-hydroxyethylammonium acetate]	speed of sound	1781.2 ± 20 m/s
CC(C)O	speed of sound	1122.4 ± 20 m/s
CC(=O)[O-].OCC[NH2+]CCO [2,2'-azanediylbis(ethanol) acetate]	speed of sound	1828.2 ± 20 m/s

// below: speed of sound requested for another molecule
I have this molecule here, `CCCO` , and I need its recorded speed of sound.
1189.4 ± 20 m/s

----------
conditions: 293.15 K; 101.3 kPa; Liquid; Vibrating tube method
Kindly supply the reported mass density values for the records listed here.
Give bare numbers, in kg/m3.

Below are worked cases with known answers.
molecule	units symbol	recorded measurement
CC(C)O	kg/m3	791.5
CCCO	kg/m3	803.6
CC(=O)[O-].OCC[NH2+]CCO [2,2'-azanediylbis(ethanol) acetate]	kg/m3	1180

Name the reported mass density value associated with the molecule CC(=O)[O-].[NH3+]CCO [2-hydroxyethylammonium acetate]
1150

----------
details: 293.15 K; 101.3 kPa; Liquid; Single path-length method
Kindly supply the reported speed of sound values for the records listed here.
One number for each entry, in m/s.

Check out these entries, answers already filled in.
molecule	units symbol	speed of sound
CC(C)O [propan-2-ol]	m/s	1174.3
CC(=O)[O-].[NH3+]CCO [2-hydroxyethylammonium acetate]	m/s	1812.9
CC(=O)[O-].OCC[NH2+]CCO [2,2'-azanediylbis(ethanol) acetate]	m/s	1884.7

# ---- query molecule ----
Fill blank: measured speed of sound of the molecule CCCO [propan-1-ol] is ____.
1223.4

----------
details: 303.15 K; 101.3 kPa; Liquid; Vibrating tube method
Please respond with reported mass density for every item in the list.
Numbers only, in kg/m3.

Check out these entries, answers already filled in.
compound	units symbol	mass density
CC(=O)[O-].[NH3+]CCO [2-hydroxyethylammonium acetate]	kg/m3	1144
CC(=O)[O-].OCC[NH2+]CCO [2,2'-azanediylbis(ethanol) acetate]	kg/m3	1173
CC(C)O [propan-2-ol]	kg/m3	777

Could you now consider this next compound?
Entry CCCO [propan-1-ol] : reported mass density = ?
795.7

Hey, just so you know, these numbers are from the NIST ThermoML archive (doi:10.1021/acs.jced.9b00147).
